system: FB; test: Euclidean distance of Cell Painting phenotypic profile (signed KS, 77 features) to DMSO centroid (dimensionless distance); higher = stronger phenotypic change vs DMSO (phenoactivity); conditions: 48 h; 5 or 10 uM (library dependent)
Recorded Euclidean distance for the following compounds
Quick one: just the number, no unit, thanks!

As a guide, the following entries are already answered.
compound	measureName	resultValue
CN1CCN(c2nc3ccccc3nc2Cl)CC1	Euclidean distance	0.897
CC(=O)NC1CCSC1=O (stereo not drawn)	Euclidean distance	1.06
COC1=C[C@@H]2[C@@H]3Cc4ccc(OC)c(O)c4[C@]2(CCN3C)CC1=O [Sinomenine]	Euclidean distance	0.89
O=C(NCC1CCOCC1)c1cnc(Nc2ccc(Cl)cc2Cl)nc1C(F)(F)F	Euclidean distance	3.43
O=C(O)CNC(=O)c1c(O)c2ccccc2n(Cc2ccccc2)c1=O	Euclidean distance	1.06
COC(=O)C1=CCCN(C)C1	Euclidean distance	1.12
COc1cc2c(cc1OC)C1CC(=O)C(CC(C)C)CN1CC2 (stereo not drawn)	Euclidean distance	1.12

// moving on: another record for Euclidean distance
Record C[N+](C)(C)CCCCCCCCCC[N+](C)(C)C [Decamethonium Bromide] . Reported Euclidean distance: 0.466
